# procedure.details: Metabolic stability assay, human liver microsomes
# Assay type: in vitro ADME
# measurement.setup: human microsomes, 60 min, 10 μM, 37° C.
Record form. Attribute: Metabolic Stability 60 min hum [% remain.]. Fill in for each entry.
Answers are plain numbers, in % remain..

| smiles.text | observed.measurement |
| --- | --- |
| COc1ccc2c(c1)-c1cccc(c1)C(=O)N(C)[C@H](C(=O)NCC(F)(F)F)CCC(=O)N[C@H](C)CO2 | 100 |
| C[C@H]1COc2cccc(c2)-c2cccc(c2)C(=O)N(C)[C@H](C(=O)NCC(F)(F)F)CCC(=O)N1 | 99 |
| COc1ccc2c(c1)-c1cccc(c1)C(=O)N(C)[C@H](C(=O)Nc1ccccc1)CCC(=O)N[C@H](C)CO2 | 66 |
| COc1ccc2c(c1)-c1cccc(c1)C(=O)N(C)[C@H](C(N)=O)CCC(=O)N[C@H](C)CO2 | 100 |
| COc1ccc2c(c1)-c1cccc(c1)C(=O)N(C)[C@H](C(=O)NCCN(C)C)CCC(=O)N[C@H](C)CO2 | 83 |

Please go through the list and note Metabolic Stability 60 min hum [% remain.] for each compound.
1. C[C@H]1COc2cccc(c2)-c2cccc(c2)C(=O)N(C)[C@H](C(=O)NCC(=O)O)CCC(=O)N1
2. COc1ccc2c(c1)-c1cccc(c1)C(=O)N(C)[C@H](C(=O)N1CCCC1)CCC(=O)N[C@H](C)CO2
3. COc1ccc2c(c1)-c1cccc(c1)C(=O)N(C)[C@H](C(=O)NCCO)CCC(=O)N[C@H](C)CO2
4. COc1ccc2c(c1)-c1cccc(c1)C(=O)N(C)[C@H](C(=O)NCC(=O)O)CCC(=O)N[C@H](C)CO2
5. CNC(=O)[C@@H]1CCC(=O)N[C@H](C)COc2ccc(OC)cc2-c2cccc(c2)C(=O)N1C
6. C[C@H]1COc2cccc(c2)-c2cccc(c2)C(=O)N(C)[C@H](C(=O)N2CCOCC2)CCC(=O)N1

OUT:
[85, 26, 97, 100, 68, 17]

Look up Metabolic Stability 60 min hum [% remain.] for the entries below, preserving their order.
1. C[C@H]1COc2cccc(c2)-c2cccc(c2)C(=O)N(C)[C@H](C(N)=O)CCC(=O)N1
2. COc1ccc2c(c1)-c1cccc(c1)C(=O)N(C)[C@H](C(=O)NCc1cccnc1)CCC(=O)N[C@H](C)CO2
3. C[C@H]1COc2cccc(c2)-c2cccc(c2)C(=O)N(C)[C@H](C(=O)NCc2ccc3ccccc3c2)CCC(=O)N1
4. C[C@H]1COc2cccc(c2)-c2cccc(c2)C(=O)N(C)[C@H](C(=O)NC2CC2)CCC(=O)N1
5. COCCNC(=O)[C@@H]1CCC(=O)N[C@H](C)COc2ccc(OC)cc2-c2cccc(c2)C(=O)N1C
6. COc1ccc2c(c1)-c1cccc(c1)C(=O)N(C)[C@H](C(=O)N[C@@H](C)c1ccccc1)CCC(=O)N[C@H](C)CO2
7. CC(C)CNC(=O)[C@@H]1CCC(=O)N[C@@H](C)COc2cccc(c2)-c2cccc(c2)C(=O)N1C

OUT:
1. 100
2. 53
3. 8
4. 95
5. 71
6. 87
7. 6

Provide Metabolic Stability 60 min hum [% remain.] values for the following items, in order.
1. C[C@H]1COc2cccc(c2)-c2cccc(c2)C(=O)N(C)[C@H](C(=O)NCCc2ccccc2)CCC(=O)N1
2. C[C@H]1COc2cccc(c2)-c2cccc(c2)C(=O)N(C)[C@H](C(=O)NCCO)CCC(=O)N1
3. COc1ccc2c(c1)-c1cccc(c1)C(=O)N(C)[C@H](C(=O)O)CCC(=O)N[C@H](C)CO2
4. C[C@H]1COc2cccc(c2)-c2cccc(c2)C(=O)N(C)[C@H](C(=O)NCCN(C)C)CCC(=O)N1
5. COc1ccc2c(c1)-c1cccc(c1)C(=O)N(C)[C@H](C(=O)NCC(C)C)CCC(=O)N[C@H](C)CO2
6. C[C@H]1COc2cccc(c2)-c2cccc(c2)C(=O)N(C)[C@H](C(=O)O)CCC(=O)N1
7. C[C@H](NC(=O)[C@@H]1CCC(=O)N[C@@H](C)COc2cccc(c2)-c2cccc(c2)C(=O)N1C)c1ccccc1

OUT:
1. 0
2. 100
3. 100
4. 97
5. 60
6. 100
7. 4

Hey, can you go through the list below and give me Metabolic Stability 60 min hum [% remain.] for every item?
1. C[C@H]1COc2cccc(c2)-c2cccc(c2)C(=O)N(C)[C@H](C(=O)Nc2ccccc2)CCC(=O)N1
2. C[C@H]1COc2cccc(c2)-c2cccc(c2)C(=O)N(C)[C@H](C(=O)NCCCN2CCCC2)CCC(=O)N1
3. CNC(=O)[C@@H]1CCC(=O)N[C@@H](C)COc2cccc(c2)-c2cccc(c2)C(=O)N1C

OUT:
1. 14
2. 100
3. 100

For every record below, what is its Metabolic Stability 60 min hum [% remain.]?
1. C[C@H]1COc2cccc(c2)-c2cccc(c2)C(=O)N(C)[C@H](C(=O)NCc2cccnc2)CCC(=O)N1
2. COc1ccc2c(c1)-c1cccc(c1)C(=O)N(C)[C@H](C(=O)NCCCN)CCC(=O)N[C@H](C)CO2

OUT:
12
100

###

# procedure.details: Plasma stability assay, CD-1 mouse plasma
# Format: in vitro ADME
# measurement.setup: CD-1 mouse plasma, 240 min, 10 μM, 37° C.
Binary call on Plasma Stability 240 min mouse/(rat) [% remain.] with cut-off 80 % remain.: strictly below means MET, and equality or higher means NOT MET.

IN: Quick check: does `COc1ccc2c(c1)-c1cccc(c1)C(=O)N(C)[C@H](C(=O)NCC(C)C)CCC(=O)N[C@H](C)CO2` have Plasma Stability 240 min mouse/(rat) [% remain.] under 80 % remain.?
OUT: NOT MET

IN: // same read-out, input: `C[C@H]1COc2cccc(c2)-c2cccc(c2)C(=O)N(C)[C@H](C(=O)N2CCC2)CCC(=O)N1`
OUT: MET

IN: // next record `COc1ccc2c(c1)-c1cccc(c1)C(=O)N(C)[C@H](C(=O)NCC(=O)O)CCC(=O)N[C@H](C)CO2`
OUT: MET

IN: Request: `C[C@H]1COc2cccc(c2)-c2cccc(c2)C(=O)N(C)[C@H](C(=O)N2CCOCC2)CCC(=O)N1`
OUT: NOT MET

IN: And the next one, `C[C@H]1COc2cccc(c2)-c2cccc(c2)C(=O)N(C)[C@H](C(=O)Nc2ccccc2)CCC(=O)N1` ?
OUT: MET

IN: Please answer likewise for `C[C@H]1COc2cccc(c2)-c2cccc(c2)C(=O)N(C)[C@H](C(=O)O)CCC(=O)N1`
OUT: MET

IN: Try `COc1ccc2c(c1)-c1cccc(c1)C(=O)N(C)[C@H](C(=O)NCCCN)CCC(=O)N[C@H](C)CO2` next.
OUT: MET

IN: Would you mind doing `CC(C)CNC(=O)[C@@H]1CCC(=O)N[C@@H](C)COc2cccc(c2)-c2cccc(c2)C(=O)N1C` as well?
OUT: NOT MET

IN: Here is the next compound: `C[C@H]1COc2cccc(c2)-c2cccc(c2)C(=O)N(C)[C@H](C(=O)NCC(=O)O)CCC(=O)N1`
OUT: NOT MET

IN: Try this compound next: `COc1ccc2c(c1)-c1cccc(c1)C(=O)N(C)[C@H](C(=O)Nc1ccccc1)CCC(=O)N[C@H](C)CO2`
OUT: MET

IN: Now give it for `COc1ccc2c(c1)-c1cccc(c1)C(=O)N(C)[C@H](C(N)=O)CCC(=O)N[C@H](C)CO2` too.
OUT: MET

IN: Now this one: `C[C@H]1COc2cccc(c2)-c2cccc(c2)C(=O)N(C)[C@H](C(=O)NC2CC2)CCC(=O)N1`
OUT: MET

###

I'd appreciate it if you could supply IC50 values for the items below.
# study.target: Thyrotropin-releasing hormone receptor (TRH receptor) (Homo sapiens, UniProt P34981)
# Sequence (P34981 whole entry, species assumed): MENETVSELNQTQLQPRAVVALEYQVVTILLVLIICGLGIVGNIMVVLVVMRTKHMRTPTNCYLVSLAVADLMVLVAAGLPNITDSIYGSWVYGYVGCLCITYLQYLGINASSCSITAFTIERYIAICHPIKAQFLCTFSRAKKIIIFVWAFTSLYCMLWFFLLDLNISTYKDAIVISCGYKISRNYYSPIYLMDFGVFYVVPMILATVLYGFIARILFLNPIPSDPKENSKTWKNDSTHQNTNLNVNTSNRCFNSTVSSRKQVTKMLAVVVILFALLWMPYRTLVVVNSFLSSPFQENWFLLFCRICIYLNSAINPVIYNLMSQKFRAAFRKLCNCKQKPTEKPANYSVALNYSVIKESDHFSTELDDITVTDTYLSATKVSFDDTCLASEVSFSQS
# procedure.details: Ca2+ flux (FLIPR) assay, TRH receptor, agonist/antagonist mode
# measurement.setup: antagonist mode
Numbers only, in µM.

| smiles.text | study.target | measurement.unit | observed.measurement |
| --- | --- | --- | --- |
| O=C(CN1CCCC1)N[C@H]1C[C@H]2COc3cccc(c3)-c3ccccc3C(=O)NCC[C@@H](NC(=O)Cc3cccc4ccccc34)C(=O)N2C1 | Thyrotropin-releasing hormone receptor (TRH receptor) (Homo sapiens, UniProt P34981) | µM | 1.4 |

IN: Param item = `O=C(CN1CCCC1)N[C@H]1C[C@H]2COc3cccc(c3)-c3ccccc3C(=O)NCC[C@@H](NC(=O)Nc3cccc4ccccc34)C(=O)N2C1` ; retrieve measured IC50.
OUT: 8.2

###

# study.target: Thyrotropin-releasing hormone receptor (TRH receptor) (Homo sapiens, UniProt P34981)
# Construct: expressed in transfected cells; host or cells: Ca2+ optimized hematopoietic cell lines (rat)
# procedure.details: Ca2+ flux (FLIPR) assay, TRH receptor, agonist/antagonist mode
# Type: cell-based
# measurement.setup: antagonist mode, 10 μM
I'd appreciate it if you could supply inhibition at 10 µM values for the items below.
One number for each entry, in %.

// below: answered compounds
| compound | study.target | inhibition at 10 µM, % |
| --- | --- | --- |
| O=C(Cc1cccc2ccccc12)N[C@@H]1CCNC(=O)c2ccccc2-c2cccc(c2)OC[C@@H]2C[C@H](NC(=O)Nc3cccnc3)CN2C1=O [Ex. 333] | Thyrotropin-releasing hormone receptor (TRH receptor) (Homo sapiens, UniProt P34981) | 35 |
| O=C(CN1CCCC1)N[C@H]1C[C@H]2COc3cccc(c3)-c3ccccc3C(=O)NCC[C@@H](NC(=O)Cc3cccc4ccccc34)C(=O)N2C1 [Ex. 7] | Thyrotropin-releasing hormone receptor (TRH receptor) (Homo sapiens, UniProt P34981) | 91 |
| O=C(Cn1ccnc1)N[C@H]1C[C@H]2COc3cccc(c3)-c3ccccc3C(=O)NCC[C@@H](NC(=O)Cc3cccc4ccccc34)C(=O)N2C1 [Ex. 332] | Thyrotropin-releasing hormone receptor (TRH receptor) (Homo sapiens, UniProt P34981) | 29 |
| O=C(CN1CCCC1)N[C@H]1C[C@H]2COc3cccc(c3)-c3ccccc3C(=O)NCC[C@@H](NC(=O)Cc3cccc(Cl)c3)C(=O)N2C1 [Ex. 334] | Thyrotropin-releasing hormone receptor (TRH receptor) (Homo sapiens, UniProt P34981) | 40 |
| O=C(CN1CCCC1)N[C@H]1C[C@H]2COc3cccc(c3)-c3ccccc3C(=O)NCC[C@@H](NC(=O)CC3CCCCC3)C(=O)N2C1 [Ex. 335] | Thyrotropin-releasing hormone receptor (TRH receptor) (Homo sapiens, UniProt P34981) | 34 |

Now for another entry.
IN: Query (compound): O=C(CN1CCCC1)N[C@H]1C[C@H]2COc3cccc(c3)-c3ccccc3C(=O)NCC[C@@H](NC(=O)Nc3cccc4ccccc34)C(=O)N2C1 [Ex. 336] ; field requested: inhibition at 10 µM
OUT: 48
